- MEASURED_TARGET: Cytochrome P450 2C9 (Homo sapiens) (UniProt P11712)
- Sequence (P11712 whole entry, looked up): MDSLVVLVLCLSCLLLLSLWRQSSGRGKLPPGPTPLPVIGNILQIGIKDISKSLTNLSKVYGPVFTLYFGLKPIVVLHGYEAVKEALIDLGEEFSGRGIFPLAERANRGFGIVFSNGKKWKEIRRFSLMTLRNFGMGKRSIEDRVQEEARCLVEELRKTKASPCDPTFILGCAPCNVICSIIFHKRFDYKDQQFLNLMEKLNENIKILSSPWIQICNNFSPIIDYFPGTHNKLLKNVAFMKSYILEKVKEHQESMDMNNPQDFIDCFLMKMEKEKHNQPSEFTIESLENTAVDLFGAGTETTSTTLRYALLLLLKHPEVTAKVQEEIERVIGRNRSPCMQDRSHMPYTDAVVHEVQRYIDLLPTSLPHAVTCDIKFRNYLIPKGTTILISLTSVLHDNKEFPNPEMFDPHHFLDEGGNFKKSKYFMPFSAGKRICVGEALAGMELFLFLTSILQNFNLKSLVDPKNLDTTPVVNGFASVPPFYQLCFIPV
- ASSAY_METHOD_TEXT: Cytochrome panel assay with activity outcomes
- CONDITIONS: recombinant CYP, pro-luciferin dealkylation, luminescence, p450-cyp2c9; series mostly up to 57.1 µM
The campaign covered roughly 16,000 compounds. About 4,000 (25%) were called active. Roughly 26% stayed inconclusive and do not appear here. Calls follow the shape of the dose curve; as a rule, active = well fitted curve in the direction sought with a large enough effect; inconclusive = small, poorly fitted or top-dose-only effect, or effect the other way; inactive = no such curve, though single readings can be large or run the other way. A selection follows.
Possible outcomes: yes (1) (active), no (0) (inactive)

- SMILES_STRUCTURE: "CCNC(=O)C/C(C)=N/NC(=O)C12CC3CC(CC(C3)C1)C2"
  CLASS_NAME: "no (0)"
- SMILES_STRUCTURE: "CC(=O)NC(NC(C)=O)c1ccc(Br)cc1"
  CLASS_NAME: "no (0)"
- SMILES_STRUCTURE: "COc1ccc(-c2nc3cnc(Nc4cccc(OC)c4)nc3n(Cc3cccs3)c2=O)cc1"
  CLASS_NAME: "no (0)"
- SMILES_STRUCTURE: "O=C1NCCN1Cc1ccccc1F"
  CLASS_NAME: "yes (1)"
- SMILES_STRUCTURE: "CSCC[C@H](NC(=O)CC(C)(C)C)c1nc2ccccc2[nH]1"
  CLASS_NAME: "yes (1)"
- SMILES_STRUCTURE: "COc1ccc(-c2nc3cnc(N(C)C)nc3n(Cc3cccs3)c2=O)cc1"
  CLASS_NAME: "no (0)"
- SMILES_STRUCTURE: "CCCCCCCCSc1nnc(CSc2nc3nc(C)cc(C)n3n2)o1"
  CLASS_NAME: "yes (1)"
- SMILES_STRUCTURE: "O=c1cc(CSc2nnc(-c3cccnc3)n2-c2ccccc2F)nc2sccn12"
  CLASS_NAME: "no (0)"
- SMILES_STRUCTURE: "CCCSc1nnc(CSc2nc3nc(C)cc(C)n3n2)o1"
  CLASS_NAME: "no (0)"
- SMILES_STRUCTURE: "CN(C)c1ncc2ncc(=O)n(Cc3ccc(F)cc3)c2n1"
  CLASS_NAME: "yes (1)"

----------
- MEASURED_TARGET: Cytochrome P450 2C9 (Homo sapiens) (UniProt P11712)
- ASSAY_METHOD_TEXT: Cytochrome panel assay with activity outcomes
- CONDITIONS: recombinant CYP, pro-luciferin dealkylation, luminescence, p450-cyp2c9; series mostly up to 57.1 µM
- Description: The P450 gene superfamily is involved in the metabolism and clearance of xenobiotics. This assay used various human CYP P450 isozymes to measure the dealkylation of various pro-luciferin substrates to luciferin. The luciferin is then measured by luminescence after the addition of a luciferase detection reagent. […] Inhibitors and some substrates limit the production of luciferin, and decrease measured luminescence. […] 8, Detection, 1 sec, ViewLux luminescent read […]
About 4,000 (25%) of roughly 16,000 compounds were called active. Not shown: some 26% with an inconclusive outcome. Only a sample is shown.
RECORDED_METRIC: AC50

- SMILES_STRUCTURE: "COc1ccc(NC(=O)c2ccc(COc3ccccc3)o2)cc1"
  RECORDED_METRIC: "AC50"
  ENDPOINT_VALUE: "0.251 µM (active)"
- SMILES_STRUCTURE: "COC(=O)c1cccc(NC(=O)CCCOc2ccccc2)c1"
  RECORDED_METRIC: "AC50"
  ENDPOINT_VALUE: "3.16 µM (active)"
- SMILES_STRUCTURE: "CC(C)=CCc1c2c(c3occ(-c4ccc(O)c(O)c4)c(=O)c3c1O)C=CC(C)(C)O2"
  RECORDED_METRIC: "AC50"
  ENDPOINT_VALUE: "3.16 µM (active)"

Just for reference, PubChem BioAssay AID1851 is where these values come from.
